These measurements were taken from the supplement of paper PMC10567573.

protein stability index: recorded values
B1: KRT13 (parent)
chain: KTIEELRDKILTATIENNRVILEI

- Variants of: B1
- METHOD_DESCRIPTION: protein stability index of a GFP-peptide fusion (GPS, HEK-293T) (PSI 1-6); higher = more stable;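 also: lentivirally expressed fusions sorted by FACS into six bins by GFP to DsRed ratio, PSI derived from sequencing read proportions per bin multiplied by bin number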
- CONDITION_DESCRIPTION: c terminus: a fixed tail appended
Please reply with the number alone, leaving off any unit.

// worked examples, protein stability index included
SEQUENCE_INPUT: KTIEELRDKILTATIENNRVILEV [I24V]
MEASURED_ATTRIBUTE: protein stability index
MEASUREMENT: 2.97

SEQUENCE_INPUT: KTIEELRDKFLTATIENNRVILEI [I10F]
MEASURED_ATTRIBUTE: protein stability index
MEASUREMENT: 3.07

SEQUENCE_INPUT: KTIEELRDCILTATIENNRVILEI [K9C]
MEASURED_ATTRIBUTE: protein stability index
MEASUREMENT: 3.32

GET /values?readout=protein stability index&item= KTIEELRDKILTATIEQNRVILEI [N17Q]
3.06

Param item = KTIERLRDKILTATIENNRVILEI [E5R] ; retrieve measured protein stability index.
2.13
